- target: Nav1.8 channels (Homo sapiens)
- Construct: expressed in transfected cells
- Sequence (Q9Y5Y9 whole entry): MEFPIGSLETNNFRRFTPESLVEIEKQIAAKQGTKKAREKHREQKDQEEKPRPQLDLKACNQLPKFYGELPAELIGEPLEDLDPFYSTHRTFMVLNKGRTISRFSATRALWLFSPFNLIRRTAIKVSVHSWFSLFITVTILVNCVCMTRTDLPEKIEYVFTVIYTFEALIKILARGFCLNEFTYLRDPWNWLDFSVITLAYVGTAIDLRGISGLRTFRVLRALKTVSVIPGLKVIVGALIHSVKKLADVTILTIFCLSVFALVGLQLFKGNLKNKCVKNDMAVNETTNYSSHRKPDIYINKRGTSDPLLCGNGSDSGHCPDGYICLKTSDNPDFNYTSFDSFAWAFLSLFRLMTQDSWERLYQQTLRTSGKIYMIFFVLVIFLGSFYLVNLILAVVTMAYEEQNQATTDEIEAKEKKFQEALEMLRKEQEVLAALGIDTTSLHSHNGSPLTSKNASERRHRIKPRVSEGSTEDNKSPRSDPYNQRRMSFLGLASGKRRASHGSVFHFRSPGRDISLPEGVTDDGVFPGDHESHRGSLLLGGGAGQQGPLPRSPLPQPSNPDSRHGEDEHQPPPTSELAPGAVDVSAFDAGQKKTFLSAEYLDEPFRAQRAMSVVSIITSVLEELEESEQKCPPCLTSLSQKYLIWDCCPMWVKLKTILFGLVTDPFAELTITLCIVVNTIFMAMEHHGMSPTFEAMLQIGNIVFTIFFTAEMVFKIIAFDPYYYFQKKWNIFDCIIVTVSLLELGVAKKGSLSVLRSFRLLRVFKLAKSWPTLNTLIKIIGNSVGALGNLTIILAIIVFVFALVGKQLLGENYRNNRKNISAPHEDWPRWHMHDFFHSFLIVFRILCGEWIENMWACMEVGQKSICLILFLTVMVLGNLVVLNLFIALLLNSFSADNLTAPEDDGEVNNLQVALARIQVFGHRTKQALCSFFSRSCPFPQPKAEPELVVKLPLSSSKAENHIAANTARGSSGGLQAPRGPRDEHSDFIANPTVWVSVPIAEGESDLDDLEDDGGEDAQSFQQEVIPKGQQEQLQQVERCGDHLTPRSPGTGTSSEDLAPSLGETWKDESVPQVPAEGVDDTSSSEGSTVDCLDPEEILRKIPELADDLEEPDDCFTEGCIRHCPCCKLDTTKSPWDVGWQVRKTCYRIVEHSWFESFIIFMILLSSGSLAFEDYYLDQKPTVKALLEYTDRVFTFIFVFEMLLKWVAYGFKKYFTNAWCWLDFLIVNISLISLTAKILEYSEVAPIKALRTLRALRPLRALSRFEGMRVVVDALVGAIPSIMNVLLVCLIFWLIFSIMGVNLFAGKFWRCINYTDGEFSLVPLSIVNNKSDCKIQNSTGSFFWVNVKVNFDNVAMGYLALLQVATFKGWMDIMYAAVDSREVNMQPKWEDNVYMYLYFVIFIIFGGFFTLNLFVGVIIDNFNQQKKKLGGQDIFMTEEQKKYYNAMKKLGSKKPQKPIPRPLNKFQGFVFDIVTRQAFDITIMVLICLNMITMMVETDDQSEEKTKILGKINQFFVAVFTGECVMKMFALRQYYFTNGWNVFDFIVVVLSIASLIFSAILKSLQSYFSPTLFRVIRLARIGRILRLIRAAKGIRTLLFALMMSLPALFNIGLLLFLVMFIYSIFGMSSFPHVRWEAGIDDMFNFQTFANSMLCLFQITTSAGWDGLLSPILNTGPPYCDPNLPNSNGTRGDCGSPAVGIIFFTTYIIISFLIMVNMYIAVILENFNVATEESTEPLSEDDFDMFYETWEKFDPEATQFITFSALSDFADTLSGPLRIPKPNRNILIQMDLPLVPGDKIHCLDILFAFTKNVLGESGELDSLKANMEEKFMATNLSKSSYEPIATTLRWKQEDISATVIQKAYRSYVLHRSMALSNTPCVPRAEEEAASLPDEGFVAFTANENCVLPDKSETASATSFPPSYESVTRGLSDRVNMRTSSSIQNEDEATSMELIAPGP
- run_description: Manual patch-clamp, current of stably overexpressed Nav1.8 channels (resting state voltage program)
- Type: cell-based
- measurement_context: concentration of 1 nM, read-out: Inhibition rate %
- Procedure: Experimental Example 1: Effects of test substances on current of stably overexpressed Nav1.8 channels monitored via manual patch-clamp technique Test compounds were dissolved in dimethyl sulfoxide (DMSO). […] After the formation of the whole-cell seal, the cell voltage was clamped at -120 mV, followed by depolarization to 0 mV using a square-wave pulse with a duration of 50 ms to elicit Nav1.8 currents. […] Once the response stabilized, the intensity of the current block was calculated.
property_measured: inhibition at 0.001 µM (%)
Give your result in % as a bare value.

Some compounds with recorded inhibition at 0.001 µM:
compound | unit_abbrev | inhibition at 0.001 µM
COc1c([C@@H]2C[C@](C)(C(F)(F)F)S[C@H]2C(=O)N(O)c2ccnc(-c3ncon3)c2)ccc(F)c1F | % | 46.7
COc1c(C2CC(C)(C(F)(F)F)SC2C(=O)Nc2ccc([S+](C)[O-])nc2)ccc(F)c1F (stereo not drawn) | % | 78.4
COc1c([C@@H]2C[C@](C)(C(F)(F)F)S[C@H]2C(=O)Nc2nn(S(=O)(=O)C(F)(F)F)cc2C)ccc(F)c1F | % | 40.1
COc1c([C@@H]2C[C@](C)(C(F)(F)F)S[C@H]2C(=O)Nc2ccc(F)c(C=O)c2)ccc(F)c1F | % | 69.3

query: For the compound COc1c([C@@H]2C[C@](C)(C(F)(F)F)S[C@H]2C(=O)Nc2ccnc(-c3ncon3)c2)ccc(F)c1F , what inhibition at 0.001 µM is on record?
result: 71.9

query: For the compound COc1c([C@@H]2C[C@](C)(C(F)(F)F)S[C@H]2C(=O)Nc2cccc(OS(N)(=O)=O)c2)ccc(F)c1F , what inhibition at 0.001 µM is on record?
result: 72

query: For the compound CNC(=O)c1cc(NC(=O)[C@@H]2S[C@@](C)(C(F)(F)F)C[C@H]2c2ccc(F)c(F)c2OC)ccn1 , what inhibition at 0.001 µM is on record?
result: 68.6

query: For the compound COc1c([C@@H]2C[C@](C)(C(F)(F)F)S[C@H]2C(=O)Nc2ccc3c(c2)C(=O)NC3=O)ccc(F)c1F , what inhibition at 0.001 µM is on record?
result: 56.5

query: For the compound COc1c([C@@H]2C[C@](C)(C(F)(F)F)S[C@H]2C(=O)Nc2cnnc(N=[N+]=[N-])c2)ccc(F)c1F , what inhibition at 0.001 µM is on record?
result: 74.5

query: For the compound COc1c(C2CC(C)(C(F)(F)F)SC2C(=O)Nc2ccnc(N)c2)ccc(F)c1F (stereo not drawn) , what inhibition at 0.001 µM is on record?
result: 87.8

query: For the compound COc1c(C2CC(C)(C(F)(F)F)SC2C(=O)Nc2ccn3nnnc3c2)ccc(F)c1F (stereo not drawn) , what inhibition at 0.001 µM is on record?
result: 80.4

====

Each entry below carries its recorded inhibition at 0.001 µM.
- target: Nav1.8 channels (Homo sapiens)
- Construct: expressed in transfected cells
- run_description: Manual patch-clamp, current of stably overexpressed Nav1.8 channels (resting state voltage program)
- Format: cell-based
- measurement_context: concentration of 1 nM, read-out: Inhibition rate %
- Procedure: Experimental Example 1: Effects of test substances on current of stably overexpressed Nav1.8 channels monitored via manual patch-clamp technique Test compounds were dissolved in dimethyl sulfoxide (DMSO). […] After the formation of the whole-cell seal, the cell voltage was clamped at -120 mV, followed by depolarization to 0 mV using a square-wave pulse with a duration of 50 ms to elicit Nav1.8 currents. […] Once the response stabilized, the intensity of the current block was calculated.
Give your result in % as a bare value.

compound | target | result_number
COc1c([C@@H]2C[C@](C)(C(F)(F)F)S[C@H]2C(=O)Nc2ccnc(C3(C#N)CC3)c2)ccc(F)c1F [a-73-A] | Nav1.8 channels (Homo sapiens) | 58.8
COc1c(C2CC(C)(C(F)(F)F)SC2C(=O)Nc2ccc(NC(=O)CN=[N+]=[N-])cc2)ccc(F)c1F (centres unmarked) [a-75-A] | Nav1.8 channels (Homo sapiens) | 55.2
COc1c([C@@H]2C[C@](C)(C(F)(F)F)S[C@H]2C(=O)Nc2ccc3nonc3c2)ccc(F)c1F [Compound 248-A] | Nav1.8 channels (Homo sapiens) | 72.6
COc1c([C@@H]2C[C@](C)(C(F)(F)F)S[C@H]2C(=O)Nc2ccc(C(=O)O)c(O)c2)ccc(F)c1F [Compound 226-A] | Nav1.8 channels (Homo sapiens) | 32.2
COc1c([C@@H]2C[C@](C)(C(F)(F)F)S[C@H]2C(=O)Nc2ccc(F)c(CO)c2)ccc(F)c1F [Compound 254-A] | Nav1.8 channels (Homo sapiens) | 76.8
COc1c([C@@H]2C[C@](C)(C(F)(F)F)S[C@H]2C(=O)Nc2cccc(-c3ncon3)c2)ccc(F)c1F [a-42-A] | Nav1.8 channels (Homo sapiens) | 42

query: For the compound COc1c([C@@H]2C[C@](C)(C(F)(F)F)S[C@H]2C(=O)Nc2ccc(B3OC(C)(C)C(C)(C)O3)c(F)c2)ccc(F)c1F [Compound 229-A] , what inhibition at 0.001 µM is on record?
result: 48.6

query: For the compound COc1c([C@@H]2C[C@](C)(C(F)(F)F)S[C@H]2C(=O)Nc2ccc(F)c(S(N)(=O)=O)c2)ccc(F)c1F [Compound 233-A] , what inhibition at 0.001 µM is on record?
result: 94.1
